- Run Description: AUC (0 to infinity) in Sprague-Dawley rat at 5 mg/kg, po measured upto 24 hrs by LC-MS/MS analysis
- Type: ADME, organism-based
- Condition Notes: in vivo

>  <Smiles Notation>
CC(=O)N/N=C/c1c(-c2nc(NCCN3CCCC3)c3ccccc3n2)[nH]c2ccccc12

>  <Endpoint Unit>
ng·h/mL

>  <AUC(0-inf)>
452

$$$$

---

- Run Description: AUC (0 to t) in Sprague-Dawley rat at 5 mg/kg, po measured upto 24 hrs by LC-MS/MS analysis
- Format: ADME, organism-based
- Condition Notes: in vivo
Readout Kind: AUC(0-t) at 24 h (ng·h/mL)

>  <Smiles Notation>
CC(=O)N/N=C/c1c(-c2nc(NCCN3CCCC3)c3ccccc3n2)[nH]c2ccccc12

>  <Readout Kind>
AUC(0-t) at 24 h

>  <Result Number>
135

$$$$
